# test.description: in vitro
# condition.notes: human, hek293t cells
experimental.endpoint: viability at 48 h, 25 µM (%)

[
  {
    "compound": "C=CC(=O)Nc1cc(C(=O)CC)ccc1F",
    "experimental.endpoint": "viability at 48 h, 25 µM",
    "output.unit": "%",
    "value.reported": 84.8
  },
  {
    "compound": "O=C(CCl)N1CC(NC(=O)C(F)(F)F)CCC1C(F)(F)F (stereo not shown)",
    "experimental.endpoint": "viability at 48 h, 25 µM",
    "output.unit": "%",
    "value.reported": 6.17
  },
  {
    "compound": "Cc1ccc(C=C(C#N)C(=O)NC2CC2)s1",
    "experimental.endpoint": "viability at 48 h, 25 µM",
    "output.unit": "%",
    "value.reported": 126
  },
  {
    "compound": "C=CC(=O)N(C)CC(=O)N1CCCC1c1nc(C)no1 (stereo not shown)",
    "experimental.endpoint": "viability at 48 h, 25 µM",
    "output.unit": "%",
    "value.reported": 78.5
  },
  {
    "compound": "CN(C)C(=O)c1ccc(CNC(=O)CCl)cc1",
    "experimental.endpoint": "viability at 48 h, 25 µM",
    "output.unit": "%",
    "value.reported": 67.8
  },
  {
    "compound": "C=CC(=O)N1CCC(C(=O)N[C@]2(C(=O)OC)CC[C@@H](C)CC2)CC1",
    "experimental.endpoint": "viability at 48 h, 25 µM",
    "output.unit": "%",
    "value.reported": 57
  },
  {
    "compound": "C=CCNC(=O)C(C#N)=Cc1cccc(C(F)(F)F)c1",
    "experimental.endpoint": "viability at 48 h, 25 µM",
    "output.unit": "%",
    "value.reported": 96.8
  },
  {
    "compound": "C=CC(=O)N(C)CC(=O)N1CCCC(CC(N)=O)CC1 (stereo not shown)",
    "experimental.endpoint": "viability at 48 h, 25 µM",
    "output.unit": "%",
    "value.reported": 68.6
  },
  {
    "compound": "CCN(Cc1ccc2c(c1)OCO2)C(=O)CCl",
    "experimental.endpoint": "viability at 48 h, 25 µM",
    "output.unit": "%",
    "value.reported": 0.477
  },
  {
    "compound": "C=CC(=O)Nc1cccc(OC(C)(C)C)c1 [3-G14, N-[3-(tert-butoxy)phenyl]prop-2-enamide]",
    "experimental.endpoint": "viability at 48 h, 25 µM",
    "output.unit": "%",
    "value.reported": 85.8
  },
  {
    "compound": "C#Cc1cccc(N(Cc2cc3n(n2)CCCO3)C(=O)CCl)c1",
    "experimental.endpoint": "viability at 48 h, 25 µM",
    "output.unit": "%",
    "value.reported": 0.703
  },
  {
    "compound": "Cc1cc(C=C(C#N)C(=O)Nc2ccccn2)c(C)n1CC(C)C",
    "experimental.endpoint": "viability at 48 h, 25 µM",
    "output.unit": "%",
    "value.reported": 87.2
  },
  {
    "compound": "C=CC(=O)NCc1ncccc1-n1cccn1",
    "experimental.endpoint": "viability at 48 h, 25 µM",
    "output.unit": "%",
    "value.reported": 70.3
  },
  {
    "compound": "C=CC(=O)N(C)CC(=O)Nc1ccc(C)c(S(=O)(=O)N(C)C)c1",
    "experimental.endpoint": "viability at 48 h, 25 µM",
    "output.unit": "%",
    "value.reported": 78.3
  },
  {
    "compound": "COc1ccc(NC(C)=O)cc1NC(=O)C(C)Cl (stereo not shown)",
    "experimental.endpoint": "viability at 48 h, 25 µM",
    "output.unit": "%",
    "value.reported": 84.8
  },
  {
    "compound": "CC(=O)N(Cc1ncc(C(C)C)o1)C1CCN(C(=O)C(C)Cl)C1 (stereo not shown)",
    "experimental.endpoint": "viability at 48 h, 25 µM",
    "output.unit": "%",
    "value.reported": 103
  },
  {
    "compound": "CN1c2ccccc2C(NC(=O)CCl)CS1(=O)=O (stereo not shown)",
    "experimental.endpoint": "viability at 48 h, 25 µM",
    "output.unit": "%",
    "value.reported": 0.505
  },
  {
    "compound": "C=CC(=O)NCC1CCN(c2ccccc2)C1 (stereo not shown)",
    "experimental.endpoint": "viability at 48 h, 25 µM",
    "output.unit": "%",
    "value.reported": 66.8
  },
  {
    "compound": "COc1cccc(NC(=O)C(C#N)=Cc2ccc(C)cc2C)c1",
    "experimental.endpoint": "viability at 48 h, 25 µM",
    "output.unit": "%",
    "value.reported": 91.5
  },
  {
    "compound": "NS(=O)(=O)c1cccc2cc(NC(=O)CCl)ccc12",
    "experimental.endpoint": "viability at 48 h, 25 µM",
    "output.unit": "%",
    "value.reported": 1.61
  },
  {
    "compound": "O=C1CCCc2cc(C(=O)CCl)ccc2N1",
    "experimental.endpoint": "viability at 48 h, 25 µM",
    "output.unit": "%",
    "value.reported": 80.5
  },
  {
    "compound": "C=CC(=O)NCCN1CCn2nccc2C1",
    "experimental.endpoint": "viability at 48 h, 25 µM",
    "output.unit": "%",
    "value.reported": 72.8
  }
]

Numbers sourced from paper PMC11995724.
